Listed variants paired with reported protein stability index
B1: RHOBTB3 (parent)
chain: QLQSMPSRELASMNLDIVDLLKKA

- Variants of: B1
- assay_notes: protein stability index of a GFP-peptide fusion (GPS, HEK-293T) (PSI 1-6); higher = more stable;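 also: lentivirally expressed fusions sorted by FACS into six bins by GFP to DsRed ratio, PSI derived from sequencing read proportions per bin multiplied by bin number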
- details: c terminus: a fixed tail appended
parameter: protein stability index

In [3]: df
Out[3]:
   mutation_code  recorded_number
0           K22H             3.67
1           V18N              3.9
2           K23M             2.32
3           L20C             3.86
4            S7G             2.66
5            M5I             2.95
